# Test system: Thymocyte
# protocol-summary: Toxicity in rat thymocytes assessed as increase in cell death at 1000 uM measured after 4 hrs by flow cytometric analysis relative to control
# Type: cell-based

- mol: "Oc1cccc(/C=C/c2cc(O)cc(O)c2)c1"
  tested-target: "Thymocyte"
  relation: ">"
  Ratio: 10
- mol: "COc1ccc(/C=C/c2ccc(OC)cc2)cc1"
  tested-target: "Thymocyte"
  relation: "<"
  Ratio: 5
- mol: "COc1ccc(/C=C/c2cc(OC)cc(OC)c2)cc1"
  tested-target: "Thymocyte"
  relation: "="
  Ratio: 5
- mol: "COc1cc(/C=C/c2ccc(NC(C)=O)cc2)cc(OC)c1"
  tested-target: "Thymocyte"
  relation: "<"
  Ratio: 5
- mol: "COc1ccc(/C=C/c2ccc(OC)c(OC)c2)cc1OC"
  tested-target: "Thymocyte"
  relation: "="
  Ratio: 5
